Recorded values, source the supplement of paper PMC13380429.

test system: Calu-3; experiment: cell viability relative to DMSO; higher = less toxic; settings: 72 h; 1000 nM
Reported endpoint: cell viability (%)

Molecule	Assay result
CCOC(=O)n1ccn(C)c1=S	104
COc1ccc2[nH]cc(CCNC(C)=O)c2c1	109
O=C(O)CCNc1cc(N2CCc3ccccc3CC2)nc(-c2cccnc2)n1	105
CCCN[C@H]1CCc2nc(N)sc2C1 [pramipexole]	102
COC(=O)C1=C(C#N)NC(C)=C(C(=O)OC(C)C)C1c1cccc([N+](=O)[O-])c1 (stereo not given)	97.5

====

test system: Calu-3; test: drug sensitivity score (DSS) for viability; higher = more toxic; extreme values may be limits of the assay; details: 72 h
drug sensitivity score values for the compounds below.

Compound	drug sensitivity score
Cc1c(NC(=O)c2cccnc2)c(=O)n(-c2ccccc2)n1C	0
c1ccc2nc(N3CCNCC3)ccc2c1	0
O=C(CN1C(=O)C2(CCCC2)NC[C@H]1c1cc(F)cc(F)c1)Nc1ccc2c(c1)C[C@@]1(C2)C(=O)Nc2ncccc21	0
Cc1nc(Nc2ccc(F)cc2)nc(N2CCc3ccccc3C2C)c1C (stereo not drawn)	0
CC1(C)CCC(C)(C)c2cc(C3(c4ccc(C(=O)O)cc4)OCCO3)ccc21	0
[Cl][Ti][Cl].c1cc[cH-]c1.c1cc[cH-]c1 [titanocene-dichloride]	0
S=P(N1CC1)(N1CC1)N1CC1	0
Cc1cc(-c2nc3cc(F)ccc3s2)ccc1NC(=O)[C@@H](N)CCCCN	1.1
CN(CCOc1ccc(NS(C)(=O)=O)cc1)CCc1ccc(NS(C)(=O)=O)cc1 [dofetilide]	0
CCNC1(C(N)=O)CCN(c2ncnc3c2nc(-c2ccccc2Cl)n3-c2ccc(Cl)cc2)CC1	0
CCOC(=O)CC(=O)N1CCSC1COc1ccccc1OC (stereo not drawn)	0
O=[N+]([O-])c1ccc2c(c1)S(=O)(=O)C=C2	3.2
Cc1sc2c(c1C)C(c1ccc(Cl)cc1)=N[C@@H](CC(=O)OC(C)(C)C)c1nnc(C)n1-2 [JQ1-(+)]	6
CCC(=O)N1CCOc2c(cc(-c3ccc(OC)c(OC)c3)cc2OC[C@H]2CCCN(C)C2)C1	0.3
CCCCOc1ccc(C(=O)Nc2ccc(F)cc2F)cc1	0
COCCOC(=O)C1=C(C)NC(C)=C(C(=O)OC(C)C)C1c1cccc([N+](=O)[O-])c1 (stereo not drawn)	0
CCC(CC)COC(=O)[C@H](C)N[P@](=O)(OC[C@H]1O[C@@](C#N)(c2ccc3c(N)ncnn23)[C@H](O)[C@@H]1O)Oc1ccccc1	0.4
CC(C)(C)Nc1nc(Nc2ccc(C(N)=O)cc2)cc(N)c1C#N	0
